Target: human serine racemase (hSR) (Homo sapiens, UniProt Q9GZT4)
Sequence (Q9GZT4 whole entry): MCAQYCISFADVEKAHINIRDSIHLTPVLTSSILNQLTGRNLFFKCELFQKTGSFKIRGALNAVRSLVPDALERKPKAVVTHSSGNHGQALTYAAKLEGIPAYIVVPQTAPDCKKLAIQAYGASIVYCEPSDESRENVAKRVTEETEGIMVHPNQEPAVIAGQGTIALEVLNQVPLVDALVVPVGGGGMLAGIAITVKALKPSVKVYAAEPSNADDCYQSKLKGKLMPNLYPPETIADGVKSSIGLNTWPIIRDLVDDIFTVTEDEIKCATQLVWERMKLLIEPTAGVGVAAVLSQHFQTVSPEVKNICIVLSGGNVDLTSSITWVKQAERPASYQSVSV
Experiment: 13C/2H-isotopic crosstalk NMR dual function assay
Details: read-out: IC50(H/D-exchange); 13C/2H crosstalk NMR assay, positive controls

COMPOUND: CCOP(=O)(CC(=O)O)OCC [compound 2, diethyl phosphonate acetate, reference compound]
MEASUREMENT TARGET: human serine racemase (hSR) (Homo sapiens, UniProt Q9GZT4)
IC50: 95 mM

----------
Biological target: human serine racemase (hSR) (Homo sapiens, UniProt Q9GZT4)
Assay: 13C/2H-isotopic crosstalk NMR dual function assay
Details: read-out: IC50(H/D-exchange); 13C/2H crosstalk NMR assay, L-Ser 30 mM

COMPOUND: O=C(O)CP(=O)(O)O [compound 1, phosphonoacetate, reference compound]
IC50, µM: 89

These data points were gathered from paper PMC11103274.
